Test: AGP1-GFP expression modulators, hit retest, confirmation, cell-based, flow cytometry, S. cerevisiae, cherry picks (AID 2273);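 note: median GFP channel fluorescence over the whole cell population gate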
Details: S. cerevisiae AGP1-GFP strain, 3 h, at 10 µM
EXPERIMENTAL READOUT: GFP response, % of DMSO (%)
Numbers only, in %.

Recorded results for 4 compounds are shown here.
# COMPOUND, GFP response, % of DMSO, %
rows = [
    ("O=S(=O)(c1cccc(C(F)(F)F)c1)c1ccc(O)cn1", 94.7),
    ("CC(C)(C)n1nc(-c2ccc(Cl)cc2)c2c(N)ncnc21", 106),
    ("O=C(c1ccc2c(c1)OCO2)N1CCN(c2ccc(F)cc2)CC1", 98.5),
    ("Cc1c(O)ccc(C(=O)CN2CCN(c3ccc(F)cc3)CC2)c1O", 101),
]

For the 7 compounds below, give their GFP response, % of DMSO values.
1. CCCc1[nH]nc2c1C(c1ccc(OCCN3CCOCC3)c(OCC)c1)C(C#N)=C(N)O2 (stereo not drawn)
2. CC(=O)c1ccc(N2CCN(C(=O)c3ccc(Br)cc3)CC2)c(F)c1
3. Cc1cccc(C(=O)Nc2ccc(O)cc2)c1
4. Cc1ccccc1C(=O)NNC(=S)NC(=O)c1ccc(Cl)cc1Cl
5. Nc1ccccc1SC(C[N+](=O)[O-])c1ccccc1 (stereo not drawn)
6. CCOC(=O)CNc1c(-c2ccc(O)cc2)nc2ccc(Cl)cn12
7. Cc1cc(NC(=O)c2cncc(Br)c2)ccc1NC(=O)c1cc2ccccc2o1

**Result**
1. 97.8
2. 115
3. 104
4. 97.1
5. 112
6. 95.4
7. 95

For the 8 compounds below, give their GFP response, % of DMSO values.
1. Cc1cc(-c2csc3nc[nH]c(=S)c23)cc(C)c1C
2. COc1ccc(OC)c(C(=O)/C=C/c2ccccc2C(F)(F)F)c1
3. CCCc1[nH]nc2c1C(c1cc(OC)ccc1F)C(C#N)=C(N)O2 (stereo not drawn)
4. CC(C)c1nnc(NC(=O)c2nc(S(=O)(=O)Cc3ccccc3F)ncc2Cl)s1
5. CC(C)c1nnc(NC(=O)c2nc(S(=O)(=O)Cc3ccc(F)cc3)ncc2Cl)s1
6. CCCc1cc(N2CCN(c3ccccn3)CC2)n2nc(C)c(-c3ccccc3)c2n1
7. CN(c1ccccc1)S(=O)(=O)c1ccc(C(=O)Nc2nnc(-c3ccc(F)cc3)o2)cc1
8. Cc1ccc(C2CCN(C(=S)Nc3cccc(Cl)c3)C2)cc1 (stereo not drawn)

**Result**
1. 118
2. 98.9
3. 101
4. 101
5. 102
6. 109
7. 106
8. 93.2

For the 4 compounds below, give their GFP response, % of DMSO values.
1. Cc1nc(C)c(-c2csc(NCCc3ccccc3)n2)s1
2. Cc1ccc(C2=NN(S(C)(=O)=O)C(c3ccc4c(c3)OCO4)C2)cc1 (stereo not drawn)
3. O=C(NCCCSc1ccccc1)c1cc(Br)ccc1O
4. CC(=O)N(\C=C/C=C/C=C1\Sc2ccccc2C1=O)c1ccccc1

**Result**
1. 96.6
2. 103
3. 93.3
4. 112

###

Assay: inhibitors of fungal efflux pumps CDR1, CDR2, MDR1, pilot screen, validation compound set, multiplex, phenotypic (AID 588506);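 note: Nile Red retained in cells so higher fluorescence means more efflux inhibition; 0 = negative control wells and 1 = enniatin B 25 µM full block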
Details: S. cerevisiae pump-expressing triplex, Nile Red efflux flow cytometry; at 10 µM; stronger effect = higher value; the pumps come from Candida albicans
Field: efflux inhibition (fraction of control). Provide a value for each of the compounds that follow.
Answers are plain numbers.

Recorded results for 4 compounds are shown here.
# COMPOUND, efflux inhibition (fraction of control)
data = [
    ("Cc1cccc(C)c1NS(=O)(=O)c1ccc(NC(=O)c2ccc(Cl)c([N+](=O)[O-])c2)cc1", -0.2),
    ("Cc1ccc2c(c1)C(O)(c1c(C)[nH]c3ccccc13)C(=O)N2 (stereo not drawn)", 0.1),
    ("CN(C)CCN(Cc1cccs1)c1ccccn1", 0.18),
    ("Cc1c(CCOC(=O)CC23CC4CC(CC(C)(C4)C2)C3)sc[n+]1Cc1ccc([N+](=O)[O-])cc1", 1.81),
]

For the 8 compounds below, give their efflux inhibition (fraction of control) values.
1. COc1ccccc1C(=O)c1cc2ccc(O)cc2oc1=O
2. Cc1nc(C)c(C)nc1C
3. CN(C)C(=O)C12CCC(C)(c3nc4ccccc4nc31)C2(C)C (stereo not drawn)
4. O=C(CCNNC(=O)c1ccncc1)NCc1ccccc1
5. Cc1ncc([N+](=O)[O-])n1CCO
6. Cc1cccc(N(C)C(=S)Oc2ccc3ccccc3c2)c1
7. O=C(/C=C/c1ccc(Cl)cc1)NCCc1ccccc1
8. CC1(C)c2ccccc2N2CC(=O)N(CC(N)=O)C21C (stereo not drawn)

**Result**
[0.03, 0.25, -0.09, 0.48, 0.18, -0.38, -0.09, -0.35]

For the 6 compounds below, give their efflux inhibition (fraction of control) values.
1. Cc1ccc(P(=O)(CSC(=N)N)c2ccc(C)cc2)cc1
2. COc1ccc(/C=C2\CCc3ccccc3C2=O)c(OC)c1OC
3. CC(=O)NCCCC(=O)NC(CCC(=O)OCc1ccccc1)C(=O)OCc1ccccc1 (stereo not drawn)
4. Oc1[nH]c2ccccc2c1N=Nc1ccccc1
5. Cc1cccc(N2C(=O)C3C(c4ccccc4)OC4(C(=O)c5ccccc5C4=O)C3C2=O)c1 (stereo not drawn)
6. CCOC(=O)NN1C(=O)c2ccccc2NC1c1ccc(OC)c(OC)c1 (stereo not drawn)

**Result**
1: 0.3; 2: 0.15; 3: 0.4; 4: -0.35; 5: 0.33; 6: -0.05

For the 8 compounds below, give their efflux inhibition (fraction of control) values.
1. CC1(C)Cc2nc3oc4c(NCc5ccccc5)ncnc4c3cc2CO1
2. Cc1nc(N[C@@H](Cc2c[nH]c3ccccc23)C(=O)O)c2oc3ccccc3c2n1
3. O=C(Nc1cccc(-c2nc3ncccc3o2)c1)c1ccccc1
4. Cc1cc(C(=O)NC(CC(C)C)C(=O)O)cc(C)c1[N+](=O)[O-] (stereo not drawn)
5. O=C(NCC1CCCCN1)c1cc(OCC(F)(F)F)ccc1OCC(F)(F)F (stereo not drawn)
6. Cc1ncc(C(=O)O)c(C(=O)O)c1N
7. Cc1ccc2c(c1)c1c(n2C)C(=O)CCC1
8. CN1CCc2cccc3c2[C@@H]1Cc1ccc(O)c(O)c1-3

**Result**
[-0.2, -0.24, -0.06, -0.12, -0.05, -0.09, 0.41, -0.09]

For the 5 compounds below, give their efflux inhibition (fraction of control) values.
1. O=C1c2ccccc2C(=O)C1c1ccccc1
2. COc1cc2c(cc1OC)C(c1cc(OC)c(OC)c(OC)c1)NCC2 (stereo not drawn)
3. COc1ccc(C2CNC(=O)C2)cc1OC1CCCC1 (stereo not drawn)
4. CC(C)(C)C(=O)NC(=S)Nc1sc2c(c1C(N)=O)CCC2
5. O=C(c1ccc(O)cc1)c1ccc(O)cc1O

**Result**
[0, -0.01, -0.12, -0.24, 0.06]

###

Field: GFP response vs DMSO. Provide a value for each of the compounds that follow.
Assay: RPL19A-GFP modulators, yeast TOR pathway, confirmation, cell-based, S. cerevisiae, flow cytometry, cherry picks, mother/daughter gates (AID 2270)
Settings: S. cerevisiae RPL19A-GFP strain, 3 h, measured here: daughter cell gate, at 10 µM, stronger effect = lower value, 100 = same GFP as DMSO wells
Numbers only, in %.

Recorded results for 3 compounds are shown here.
# COMPOUND, UNIT OF MEASURE, GFP response vs DMSO
rows = [
    ("COC(=O)c1ccc(/C=N\\NC(=O)c2ccc(C)cc2Cl)cc1", "%", 98.9),
    ("O=C(/C=C/c1cc(Br)ccc1O)c1ccco1", "%", 101),
    ("O=C(c1cccc2ccccc12)N1CCN(c2ccccc2F)CC1", "%", 92.9),
]

For the 8 compounds below, give their GFP response vs DMSO values.
1. Cc1ccc(Sc2ccc([N+](=O)[O-])cc2[N+](=O)[O-])nc1
2. O=C(Nc1cccc(O)c1)c1ccccc1
3. Cc1ccc(C2CCN(C(=S)Nc3cccc(Cl)c3)C2)cc1 (stereo not drawn)
4. COCCNC(=O)/C(C#N)=C/c1c(N2CC(C)OC(C)C2)nc2ccccn2c1=O (stereo not drawn)
5. Nc1ccccc1SC(C[N+](=O)[O-])c1ccccc1 (stereo not drawn)
6. Cc1nc2c(-c3ccc(F)cc3)c(C)nn2c(N2CCOCC2)c1C
7. COc1ccc(-c2csc(Nc3ncccc3C)n2)cc1
8. CCOC(=O)C1C(=O)C=C(c2ccc(C)cc2)CC1c1ccco1 (stereo not drawn)

**Result**
101
96.1
95.7
98.6
96.3
101
92.1
97.8

For the 5 compounds below, give their GFP response vs DMSO values.
1. Cc1ccc(-c2nc(NC(=O)c3nn(C)cc3[N+](=O)[O-])sc2C)cc1C
2. CCN(CC(=O)NC(C)(C)C)C(=O)COc1c(Cl)cc(Cl)c2ccc(C)nc12
3. O=C(N/N=C/c1ccccc1Cl)c1cccc(F)c1
4. Cc1nnc(OCc2nc3ccccc3n2C)c2ccccc12
5. Cc1ccc(S(=O)(=O)c2ccc([N+](=O)[O-])cn2)cc1

**Result**
1. 101
2. 101
3. 98.1
4. 102
5. 99.5

For the 6 compounds below, give their GFP response vs DMSO values.
1. CN(C)c1ccc(N=Cc2nc(-c3ccccc3)oc2OC(=O)c2cccc(Cl)c2)cc1
2. Cc1cc(N2CCN(C(=O)c3ccco3)CC2)n2ncc(-c3ccccc3)c2n1
3. O=C(c1cccc(COCC(F)(F)C(F)F)c1)N1CCN(c2ccccc2)CC1
4. O=C(N/N=C/c1ccc(-c2ccc(Br)cc2)o1)c1ccc2c(c1)OCO2
5. Cc1cccc(NC(=S)NCC23C=CC(O2)C2C(=O)N(c4ccc(Cl)cc4)C(=O)C23)c1 (stereo not drawn)
6. Clc1ccc(N=c2ssnc2Cl)cc1

**Result**
[99.2, 90.8, 101, 98.6, 103, 99.2]

**Query** Recall and state the measured GFP response vs DMSO for `Brc1ccc2c(c1)OCCOCCOc1cc(Br)ccc1OCCOCCOCCO2` .
**Result** 98.4
